# System: 695427-040-R-J1-PDC complex spheroid viability;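 note: spheroids exposed to compounds for seven days; 100% = DMSO vehicle control viability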
# assay_details: Anticancer human tumor 695427-040-R-J1-PDC patient-derived colon adenocarcinoma cell line growth inhibition [POLQ]
# conditions_used: second compound 0.1 µM; first compound 0.316 µM; stronger effect = lower value
Overview of reported viability, T/C across a group of molecules:

Recorded viability, T/C, per entry:
molecule	viability, T/C
C=CC(=O)N1CCN(c2nc(=O)n(-c3c(C)ccnc3C(C)C)c3nc(-c4c(O)cccc4F)c(F)cc23)C(C)C1 (stereo not given) + Nc1ccc(C#CCN(C(=O)Cc2ncc(C(F)(F)F)cc2C(F)(F)F)c2ccc(F)cc2)nn1	107%
CNCc1ccc(-c2[nH]c3cc(F)cc4c3c2CCNC4=O)cc1 + COC1C(OC(N)=O)C(O)C(Oc2ccc3c(O)c(NC(=O)c4ccc(O)c(CC=C(C)C)c4)c(=O)oc3c2C)OC1(C)C	107%
CCCS(=O)(=O)Nc1ccc(F)c(C(=O)c2c[nH]c3ncc(-c4ccc(Cl)cc4)cc23)c1F + Cc1cccc(N(C)C(=O)C2C(O)CCN2c2nc(C)cc(C(F)(F)F)c2C#N)c1	104%
CCc1cc2c(N3CCc4c(cc(Cn5ccnc5)cc4-c4cn(C)nc4C(F)(F)F)C3=O)ccnc2c(OC)n1 + Cc1cccc(N(C)C(=O)C2C(O)CCN2c2nc(C)cc(C(F)(F)F)c2C#N)c1	109%
CC(C)n1c(=O)n(C)c2cnc3cc(F)c(-c4ccc(OCCCN5CCCCC5)nc4)cc3c21 + Cc1cccc(N(C)C(=O)C2C(O)CCN2c2nc(C)cc(C(F)(F)F)c2C#N)c1	110%

For record C#Cc1c(F)ccc2cc(O)cc(-c3ncc4c(N5CC6CCC(C5)N6)nc(OCC56CCCN5CC(F)C6)nc4c3F)c12 (stereo not given) + COC1C(OC(N)=O)C(O)C(Oc2ccc3c(O)c(NC(=O)c4ccc(O)c(CC=C(C)C)c4)c(=O)oc3c2C)OC1(C)C the listed viability, T/C is 105%

Consider COc1ccc([C@@H](O)c2cc(-c3ncnc4cc(N5CCOCC5)ccc34)c(F)cc2Cl)nn1 + COC1C(OC(N)=O)C(O)C(Oc2ccc3c(O)c(NC(=O)c4ccc(O)c(CC=C(C)C)c4)c(=O)oc3c2C)OC1(C)C . Its measured viability, T/C is 104%

Lab note: C=CCn1c(=O)c2cnc(Nc3ccc(N4CCN(C)CC4)cc3)nc2n1-c1cccc(C(C)(C)O)n1 + Cc1cccc(N(C)C(=O)C2C(O)CCN2c2nc(C)cc(C(F)(F)F)c2C#N)c1 gave viability, T/C of 93.4%

The molecule listed as COc1cc(C2c3cc4c(cc3C(OC3OC5COC(C)OC5C(O)C3O)C3COC(=O)C23)OCO4)cc(OC)c1O (stereo not given) + COC1C(OC(N)=O)C(O)C(Oc2ccc3c(O)c(NC(=O)c4ccc(O)c(CC=C(C)C)c4)c(=O)oc3c2C)OC1(C)C shows viability, T/C equal to 101%

In plain terms, O=C(Nc1ccc(O)c(NS(=O)(=O)c2ccc(F)cc2)c1)c1ccc(-c2ccccc2)cc1 + COC1C(OC(N)=O)C(O)C(Oc2ccc3c(O)c(NC(=O)c4ccc(O)c(CC=C(C)C)c4)c(=O)oc3c2C)OC1(C)C has a documented viability, T/C of 106%

The values you see were collected from PubChem BioAssay AID1963840.
